Where do these numbers come from? They come from paper PMC11876671.

Assay: in vitro
Settings: PAMPA, PAMPA-BBB Pe(10^-6 cm/sec), Table S3: compounds exhibiting low PAMPA-BBB permeability
Counter-ions that a name gives are not always drawn.
Each record here notes measured Papp.

Examples with their reported Papp follow.
1) O=C(/C=C/c1ccc(O)c(O)c1)O[C@@H]1C[C@@](OC(=O)/C=C/c2ccc(O)c(O)c2)(C(=O)O)C[C@@H](O)[C@@H]1O [CYNARINE] = < 1 ×10⁻⁶ cm/s
2) CC(C)(COP(=O)(O)OP(=O)(O)OC[C@H]1O[C@@H](n2cnc3c(N)ncnc32)[C@H](O)[C@@H]1OP(=O)(O)O)[C@@H](O)C(=O)NCCC(=O)NCCS [COENZYME A] = < 1 ×10⁻⁶ cm/s
3) NCCCS(=O)(=O)O [TR[…]] = 1.7 ×10⁻⁶ cm/s
4) Oc1cc(O)c2c(c1)O[C@H](c1cc(O)c(O)c(O)c1)[C@@H](O)C2 [GALLOCATECHIN] = < 1 ×10⁻⁶ cm/s
5) COc1cc(/C=C/C(=O)O)ccc1O [FERULIC ACID] = 1.2 ×10⁻⁶ cm/s
6) CC1=C(CC/C(C)=C/CCC2=CC[C@H](C3=CC(=O)O[C@H]3O)O[C@H]2O)C(C)(C)CCC1 [MANOALIDE] = < 1 ×10⁻⁶ cm/s

Q) Sample NCCc1c[nH]c2ccc(O)cc12 [SEROTONIN HYDROCHLORIDE] — what was its Papp?
A) < 1 ×10⁻⁶ cm/s

Q) Quick one: Papp for C[C@@H]1Cc2c(Cl)cc(C(=O)N[C@@H](Cc3ccccc3)C(=O)O)c(O)c2C(=O)O1 [[…]] ?
A) 1.6 ×10⁻⁶ cm/s

Q) Consider the compound CC1NC(C(=O)O)Cc2c1[nH]c1ccccc21 (stereo not drawn) and give its measured Papp.
A) < 1 ×10⁻⁶ cm/s

Q) # lookup: Papp of O=c1c(-c2ccc(O)cc2)coc2cc(O[C@@H]3O[C@H](CO)[C@@H](O)[C@H](O)[C@H]3O)ccc12 [DAIDZIN]
A) < 1 ×10⁻⁶ cm/s

Q) Dear colleague, I am looking for the recorded Papp of the following compound: Clc1ccc([C@@H]2C[C@H]3CC[C@@H]2N3)cn1 [Epibatidine dihydrochloride]
A) 5.9 ×10⁻⁶ cm/s

Q) Give its Papp value. Item: C/C=C1\[C@H]2C=C(C)C[C@]1(N)c1ccc(=O)[nH]c1C2 [HUPERZINE A]
A) 8.1 ×10⁻⁶ cm/s
